tested on: Fusarium graminearum; assay: Fungicidal activity against Fusarium graminearum assessed as inhibition of mycelium growth at 50 ug/mL by mycelium growth rate method; assay type: functional
Would you kindly list inhibition at 50 µg/mL for each of these compounds?
Numbers only, in %.

Nc1ccc2nc3cccc(C(=O)O)c3nc2c1: 33.9
COC(=O)c1cccc2nc3cc(C(=O)COC(C)=O)ccc3nc12: 4.8
Nc1ccc2nc3c(C(=O)O)cccc3nc2c1: 1.6
COC(=O)c1cccc2nc3c(S(=O)(=O)c4ccc([N+](=O)[O-])cc4)cccc3nc12: 31.8
COC(=O)c1cccc2nc3c(C(=O)c4ccc(Cl)cc4Cl)cccc3nc12: 27.3
CCOC(=O)c1cccc2nc3cc(N)c(OCC)cc3nc12: 14.5
COC(=O)c1cccc2nc3cc(C(=O)CCc4ccccc4)ccc3nc12: 2.4
COC(=O)c1cccc2nc3cc(C(C)=O)ccc3nc12: 12.7
O=C(O)c1cccc2nc3ccccc3nc12: 43.1
CCCCOC(=O)c1cccc2nc3c(N)cccc3nc12: 2.7

Attention now shifts to the item below.
input: Please state recorded inhibition at 50 µg/mL (tested on Fusarium graminearum) of "CCCOC(=O)c1cccc2nc3ccc(N)cc3nc12"
output: 27.3

----------
tested on: Alternaria solani; assay: Fungicidal activity against Alternaria solani assessed as inhibition of mycelium growth at 50 ug/mL by mycelium growth rate method; format: functional
Criterion: inhibition at 50 µg/mL meeting or surpassing 20%. Met: true. Not met: false.

COC(=O)c1cccc2nc3cc(C(=O)c4ccc(Cl)cc4Cl)ccc3nc12: false
COC(=O)c1cccc2nc3cc(C(=O)CCCCl)ccc3nc12: true
O=C(O)c1cccc2nc3ccccc3nc12: true

Shifting focus to the molecule that follows.
input: Could you please find out whether "COC(=O)c1cccc2nc3c(N)c([N+](=O)[O-])cc([N+](=O)[O-])c3nc12" has inhibition at 50 µg/mL that meets 20% or exceeds it?
output: true

----------
system: Alternaria solani; experiment: Fungicidal activity against Alternaria solani assessed as inhibition of mycelium growth at 50 ug/mL by mycelium growth rate method; type: functional
Could you please report measured inhibition at 50 µg/mL for the items listed next?
Answers are plain numbers, in %.

CCCCOC(=O)c1cccc2nc3c([N+](=O)[O-])c(N)ccc3nc12: 17.2

Give measured inhibition at 50 µg/mL for every item shown.
1. COC(=O)c1cccc2nc3c(N)cccc3nc12
2. CCOC(=O)c1cccc2nc3cc(N)c(OCC)cc3nc12
3. CCCCOC(=O)c1cccc2nc3c(C(=O)CCCCl)cccc3nc12
4. CCOC(=O)c1cccc2nc3c(N)cccc3nc12
5. CCCOC(=O)c1cccc2nc3c(N)cccc3nc12

output:
100
17.6
6.1
51
46.7

----------
test system: Alternaria solani; assay: Fungicidal activity against Alternaria solani assessed as inhibition of mycelium growth at 50 ug/mL by mycelium growth rate method; assay type: functional
Binary call on inhibition at 50 µg/mL: 1.0 from 10% upward, 0.0 beneath that.

Examples from the recorded data:
CCCOC(=O)c1cccc2nc3cc(N)ccc3nc12: 1.0
CCCCOC(=O)c1cccc2nc3c(NC(=O)CCCCl)c([N+](=O)[O-])ccc3nc12: 1.0
CCCCOC(=O)c1cccc2nc3c(N)cccc3nc12: 1.0
COC(=O)c1cccc2nc3cc(C(C)=O)ccc3nc12: 0.0
COC(=O)c1cccc2nc3c(C(=O)c4ccc(Cl)cc4Cl)cccc3nc12: 0.0
Nc1ccc2nc3c(C(=O)O)cccc3nc2c1: 0.0

input: Hi team, for "CCCCOC(=O)c1cccc2nc3ccc(N)cc3nc12" , is the recorded inhibition at 50 µg/mL at or above 10%?
output: 1.0

input: Does "CCCCOC(=O)c1cccc2nc3c(N)c([N+](=O)[O-])cc([N+](=O)[O-])c3nc12" have a reported inhibition at 50 µg/mL of at least 10%?
output: 1.0

input: Form field: inhibition at 50 µg/mL at least 10%? Entry: "COC(=O)c1cccc2nc3c(C(=O)CCc4ccccc4)cccc3nc12"
output: 0.0

input: API: above_or_equal(metric=inhibition at 50 µg/mL, cutoff=10%) for item "COC(=O)c1cccc2nc3c(C(=O)CCCCl)cccc3nc12"
output: 1.0

input: Given the entry "COC(=O)c1cccc2nc3cc(C(=O)C(Cl)(Cl)Cl)ccc3nc12" , answer whether its inhibition at 50 µg/mL meets or surpasses 10%.
output: 0.0

input: // inclusive: inhibition at 50 µg/mL at least 10%? input: "COC(=O)c1cccc2nc3cc(N)ccc3nc12"
output: 1.0
